Taken from ChEMBL document CHEMBL1145048.

This listing pairs compounds with measured pIC50.
# Test Protocol: Glycomer activity determined as growth inhibition of human glioblastoma LNZ308 cells
# Assay type: functional, cell-based
# Test Parameters: Homo sapiens, LNZ308
pIC50: −log10 of the molar value.
Measured Parameter: pIC50

| Structure Notation | Value |
| --- | --- |
| C=CCO[C@H]1[C@H](O)[C@H](COS(=O)(=O)c2cccc(C(F)(F)F)c2)O[C@@H](Oc2ccc(I)cc2)[C@H]1OC(=O)CCc1ccccc1 | < 4.30 |
| C=CCO[C@H]1[C@H](O)[C@H](COCc2ccccc2)O[C@@H](Oc2ccc(Br)cc2)[C@H]1OC(=O)CCC | < 4.30 |
| CO[C@@H]1[C@H](O)[C@H](Oc2ccc(I)cc2)O[C@@H](COS(=O)(=O)c2cccc(C(F)(F)F)c2)[C@H]1O | < 4.30 |
| C=CCO[C@H]1[C@H](O)[C@H](COS(=O)(=O)c2cccc(C(F)(F)F)c2)O[C@@H](Oc2ccc(I)cc2)[C@H]1OC(=O)CC | 4.94 |
| CCCO[C@H]1[C@H](O)[C@H](COCc2ccccc2)O[C@@H](Oc2ccc(OC)cc2)[C@H]1OC(C)=O | < 4.30 |
| CCCC(=O)O[C@@H]1[C@H](Oc2ccc(I)cc2)O[C@@H](COS(=O)(=O)c2cccc(C(F)(F)F)c2)[C@@H](O)[C@@H]1OC | 4.66 |
| CCCO[C@H]1[C@H](O)[C@H](COS(=O)(=O)c2cccc(C(F)(F)F)c2)O[C@@H](Oc2ccccc2)[C@H]1OC(=O)CCC | < 4.30 |
